- measurement.protocol: qHTS of small molecules that selectively kill Giardia lamblia: Hit Validation.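 Note: viability measured as ATP content by luminescence so killing lowers signal; trophozoites exposed to compounds for 48 h anaerobically at 37 °C; nearly all actives have a fitted effect of over 65% in size.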
- condition.context: Giardia lamblia trophozoite viability, dose-response; series mostly up to 38.3 µM
The whole screen tested about 1,300 compounds, of which about 1,000 (77%) were called active. Inconclusive results (about 7%) are left out. Calls come from the whole dose curve; as a rule, active = well fitted inhibition curve with a large enough effect; inconclusive = small, poorly fitted or top-dose-only effect; inactive = no such curve, though single readings can be large or run the other way. So high a share suggests a set chosen from earlier hits. The list shows a part of the results.
Please reply with one of these outcomes: active, inactive

Tell me the recorded outcome of this test for COc1ccc(C(=O)CC(SCC(NC(C)=O)C(=O)O)c2ccc(Cl)cc2)cc1OC (configuration not stated) .
active

Tell me the recorded outcome of this test for CC(C)Oc1cc(O)c2c(=O)c(-c3ccc(O)cc3)coc2c1 .
active

Tell me the recorded outcome of this test for COCCn1c(C)cc(/C=C2/SC(=O)N(C(C)C(=O)OC)C2=O)c1C (configuration not stated) .
active

Tell me the recorded outcome of this test for Cc1cc(C)cc(N=c2c([N+](=O)[O-])nn(-c3ccc(Cl)cc3)n2O)c1 .
active

Tell me the recorded outcome of this test for CN(C)c1ccc(/C=C/c2ccc3cc(N)ccc3n2)cc1 .
active

Tell me the recorded outcome of this test for Cc1ccc(OCC(=O)N/N=C/c2ccc([N+](=O)[O-])o2)cc1 .
active

Tell me the recorded outcome of this test for CN1C2=CC=CC=CC2=[N+](C)C12C([N+](=O)[O-])=CC(=[N+]([O-])[O-])C=C2[N+](=O)[O-] (configuration not stated) .
active

Tell me the recorded outcome of this test for CCOn1c(=O)c(-c2cccc([N+](=O)[O-])c2)[n+]([O-])c2ccccc21 .
active

Tell me the recorded outcome of this test for Cc1ccc(Nc2ccc([N+](=O)[O-])nc2[N+](=O)[O-])cc1 .
active

Tell me the recorded outcome of this test for CCc1ccccc1NC(=O)CC(NCc1ccccc1)C(=O)O (configuration not stated) .
inactive

Tell me the recorded outcome of this test for O=[N+]([O-])c1nn(-c2ccccc2)[n+]([O-])c1N1CCN(c2ccccc2)CC1 .
active

Tell me the recorded outcome of this test for CCOC(=O)c1cc([N+](=O)[O-])sc1NC(=O)CC .
active

Tell me the recorded outcome of this test for CC(=O)O[C@@H]1[C@@H](OC(C)=O)[C@H](n2ccc3cc([N+](=O)[O-])ccc32)OC[C@@H]1OC(C)=O .
active

Tell me the recorded outcome of this test for CCc1ccc(S(=O)(=O)Nc2ccc(-c3ccc4nnc(C)n4n3)cc2)s1 .
inactive

Tell me the recorded outcome of this test for [O-][n+]1c2cc(C(F)(F)F)ccc2c2n1CCN=C2c1ccc(Cl)cc1 .
active

Tell me the recorded outcome of this test for O=C(/C=C/c1ccc(O)c([N+](=O)[O-])c1)c1ccc2ccccc2c1 .
active

Tell me the recorded outcome of this test for COc1ccc(CNC(=O)CSc2ccsc2[N+](=O)[O-])cc1 .
active

Tell me the recorded outcome of this test for COc1ccc(NS(=O)(=O)c2ccc(S(=O)(=O)N(C)C)cc2)cc1S(N)(=O)=O .
inactive

Tell me the recorded outcome of this test for O=c1c(-c2ccc(F)cc2)coc2cc(O)ccc12 .
active

Tell me the recorded outcome of this test for CCC1CCCCN1C(=O)c1ccc([N+](=O)[O-])o1 (configuration not stated) .
active

Tell me the recorded outcome of this test for COC(=O)[C@@]1(Cc2ccc(OC)cc2)[C@H]2c3cc(C(=O)N4CCCC4)n(CCn4cc([N+](=O)[O-])nc4C)c3C[C@H]2CN1C(=O)c1ccccc1 .
active

Tell me the recorded outcome of this test for CC(NCCN(C)C)C1CCC2C3CCc4cc(O)ccc4C3CCC12C (configuration not stated) .
active

Tell me the recorded outcome of this test for COc1ccccc1CNC(=O)CSc1ccsc1[N+](=O)[O-] .
active

Tell me the recorded outcome of this test for O=[N+]([O-])c1cncn1CCN1CCOCC1 .
active

Tell me the recorded outcome of this test for O=C(c1cc(Cl)ccc1Cl)N1CCN(Cc2ccccc2)CC1 .
inactive

Tell me the recorded outcome of this test for COc1cc(Nc2ccc(C)cc2)c([N+](=O)[O-])nc1[N+](=O)[O-] .
active

Tell me the recorded outcome of this test for O=C(N/N=C/c1ccc([N+](=O)[O-])o1)C(O)c1ccccc1 (configuration not stated) .
active

Tell me the recorded outcome of this test for CC(=O)c1ccc(NC(=O)CSc2ccsc2[N+](=O)[O-])cc1 .
active

Tell me the recorded outcome of this test for COc1ccc(-c2coc3cc(O)ccc3c2=O)cc1 .
active

Tell me the recorded outcome of this test for COc1ccc(C2=NCCn3c2c2ccc(C(F)(F)F)cc2[n+]3[O-])cc1 .
active

Tell me the recorded outcome of this test for CC1CCN(c2c([N+](=O)[O-])nn(-c3ccc4c(c3)OCCO4)[n+]2[O-])CC1 .
active

Tell me the recorded outcome of this test for N/C(=N\c1nc2ccccc2o1)NC(=O)C(Cc1ccccc1)N1C(=O)c2ccccc2C1=O (configuration not stated) .
active

Tell me the recorded outcome of this test for O=C(CCN=C1NS(=O)(=O)c2ccccc21)OCC(=O)c1ccc(F)c(F)c1 .
inactive

Tell me the recorded outcome of this test for O=C(Cc1ccc([N+](=O)[O-])cc1)N/N=C/c1ccc([N+](=O)[O-])o1 .
active

Tell me the recorded outcome of this test for COc1cc(C2C(C(=O)c3ccc(C)o3)=C(O)C(=O)N2c2cc(C)on2)ccc1OCc1ccccc1 (configuration not stated) .
inactive

Tell me the recorded outcome of this test for O=C(O)c1cc(Cl)c(Cl)cc1C(=O)N1CCCC1 .
inactive

Tell me the recorded outcome of this test for c1coc(-c2nc3cc4ccccc4cc3nc2-c2ccco2)c1 .
active

Tell me the recorded outcome of this test for O=C(N/N=C/c1ccc([N+](=O)[O-])o1)c1ccc2c(c1)OCO2 .
active

Tell me the recorded outcome of this test for CN(C)S(=O)(=O)c1ccc(N2CCCC2)c(C(=O)N2CCN(c3ccc([N+](=O)[O-])cc3)CC2)c1 .
active

Tell me the recorded outcome of this test for Cc1cc(C(=O)COc2cccnc2[N+](=O)[O-])c(C)n1Cc1cccs1 .
active

Tell me the recorded outcome of this test for CCc1ccccc1NC(=O)CSc1ccsc1[N+](=O)[O-] .
active

Tell me the recorded outcome of this test for Cc1ccc(C2=NCCn3c2c2ccc(C(F)(F)F)cc2[n+]3[O-])cc1 .
active
